# Experimental protocol: Cytotoxicity against human A2780 cells by MTT assay
# Format: functional, cell-based
Measured metric: IC50

Substance smiles	Recorded result
Cc1cc(O)cc2oc(=O)c3c(O)cc(O)cc3c12	> 10 µM
COc1cc(O)c2c(=O)oc3c(O)c(OC)c(Cl)c(C)c3c2c1	> 10 µM
COc1cc(O)c2c(=O)oc3c(O)c(OC)cc(C)c3c2c1	> 10 µM
CC(=O)O[C@H]1C(=O)[C@@]2(C)[C@H]([C@H](OC(=O)c3ccccc3)[C@]3(O)C[C@H](OC(=O)[C@H](O)[C@@H](NC(=O)c4ccccc4)c4ccccc4)C(C)=C1C3(C)C)[C@]1(OC(C)=O)CO[C@@H]1C[C@@H]2O	0.038 µM
Cc1c(Cl)c(O)cc2oc(=O)c3c(O)cc(O)cc3c12	> 10 µM
COC1=C(Cl)[C@](C)(O)c2c(oc(=O)c3c(O)cc(OC)cc23)C1=O	3.6 µM
